Origin of measurements: patent US20240215577A1

# Test system: Botrytis cinerea
# Protocol Summary: Test E: tomato Botrytis, preventive spray on tomato seedlings
# Format: in vivo
# Reported Conditions: 50 ppm, 100 = 100% disease control, 0 = no control
Measurement Label: Test E disease control rating

# Cpd Smiles, Measurement Label, Reported Value
measured = [
    ("COc1cc(OC)c(Cl)c(-c2cn(OCC#N)c(=O)c(Cl)c2-c2ccc(F)cc2Cl)c1", "Test E disease control rating", "94%"),
    ("COc1ccc(Cl)c(-c2cn(C)c(=O)c(Cl)c2-c2ccccc2C(F)(F)F)c1", "Test E disease control rating", "90%"),
    ("COc1cc(OC)cc(-c2cn(C)c(=O)c(C)c2-c2ccc(F)cc2Cl)c1", "Test E disease control rating", "92%"),
    ("Cn1cc(-c2cc(F)ccc2Cl)c(-c2ccc(F)cc2Cl)c(I)c1=O", "Test E disease control rating", "91%"),
    ("C=CCn1cc(-c2cc(OC)ccc2Cl)c(-c2ccc(F)cc2Cl)c(Cl)c1=O", "Test E disease control rating", "91%"),
    ("Cc1c(-c2ccc(F)cc2Cl)c(-c2cc(F)ccc2Cl)cn(C)c1=O", "Test E disease control rating", "98%"),
    ("CCCOc1ccc(Cl)c(-c2cn(C)c(=O)c(Cl)c2-c2ccc(F)cc2F)c1", "Test E disease control rating", "94%"),
    ("CCOc1ccc(Cl)c(-c2cn(C)c(=O)c(Cl)c2-c2ccc(F)cc2F)c1", "Test E disease control rating", "99%"),
]
